Test: gradient 5% acetonitrile 3 min, to 50% in 2 min, to 85% in 15 min, held 3 min, 100 µL/min
Conditions: column: Zorbax Extend-C18 2.1 x 50 mm; eluents: water / acetonitrile, 0.1% formic acid
Classification by RP-LC retention time follows these ranges: band 1 = under 700 s, band 2 = from 700 s up to 900 s, band 3 = 900 s and over

**Q:** Place this compound in its band: COc1cccc(S(=O)(=O)N2CCC(c3noc(-c4ccccc4)n3)CC2)c1
**A:** band 3

**Q:** Place this compound in its band: CCN1CCCC1CNS(=O)(=O)c1ccc2c(c1)CCN2C(=O)CCC(=O)N1CCCCC1 (centres undefined)
**A:** band 1

**Q:** Place this compound in its band: Cn1nccc1C(=O)NC1CCCN(c2cc(N3CCCC3)ncn2)C1 (centres undefined)
**A:** band 1

**Q:** Place this compound in its band: Cc1sc(-c2nnc(C3CC3)o2)cc1NC(=O)c1ccnn1C
**A:** band 2

**Q:** Place this compound in its band: Cc1cccc(Cn2nc3ccc(S(=O)(=O)N4CCOCC4)cn3c2=O)c1
**A:** band 2

* * *

Assay: gradient 5% acetonitrile 3 min, to 50% in 2 min, to 85% in 15 min, held 3 min, 100 µL/min
Conditions: column: Zorbax Extend-C18 2.1 x 50 mm; eluents: water / acetonitrile, 0.1% formic acid
reported_metric: RP-LC retention time

**Q:** What does the record list as RP-LC retention time for Cc1cc(C(=O)NCC(C)C)c2cccc(Cl)c2n1 ?
**A:** 770 s

**Q:** What does the record list as RP-LC retention time for O=C(Cn1cnc(-c2ccc(F)cc2)cc1=O)NCc1ccco1 ?
**A:** 684 s

**Q:** What does the record list as RP-LC retention time for CCn1c(=O)c(N2CCCC(C(=O)NCCCN3CCOCC3)C2)nc2cccnc21 (stereo unspecified) ?
**A:** 621 s

**Q:** What does the record list as RP-LC retention time for CCc1noc(-c2cnc3nc(C)ccc3c2Nc2ccccc2C)n1 ?
**A:** 818 s

**Q:** What does the record list as RP-LC retention time for CC(=O)NC1(C(=O)O)CCCC1 ?
**A:** 617 s

**Q:** What does the record list as RP-LC retention time for Cc1cc(C)c(C(=O)N2CCC(CC(=O)NCc3ccc(Cl)cc3)CC2)[nH]1 ?
**A:** 800 s

* * *

Test: gradient 5% acetonitrile 3 min, to 50% in 2 min, to 85% in 15 min, held 3 min, 100 µL/min
Settings: column: Zorbax Extend-C18 2.1 x 50 mm; eluents: water / acetonitrile, 0.1% formic acid
Mark true (1) only for RP-LC retention time values smaller than 800 s; exact matches and larger values are false (0).

**Q:** Report whether reported RP-LC retention time is lower than 800 s (strictly) for CCc1nc2cc(-c3noc(Cc4ccc(NC(C)=O)cc4)n3)ccc2o1
**A:** false (0)

**Q:** Report whether reported RP-LC retention time is lower than 800 s (strictly) for CCc1ccccc1NC(=O)c1sc(-c2cn(C)c3ncccc23)nc1C
**A:** false (0)

**Q:** Report whether reported RP-LC retention time is lower than 800 s (strictly) for COc1ccc(NS(=O)(=O)c2cc(-c3noc(C(=O)N4CCCC4)n3)sc2C)cc1OC
**A:** false (0)

**Q:** Report whether reported RP-LC retention time is lower than 800 s (strictly) for CCN1CCC2(CC1)OC(=O)C(C)=C2C(=O)NCCCN1CCN(c2cc(C)ccc2C)CC1
**A:** true (1)

**Q:** Report whether reported RP-LC retention time is lower than 800 s (strictly) for C=CCNC(=O)Cc1c(C)n(CC=C)c2nc(-c3ccccc3)nn2c1=O
**A:** true (1)

**Q:** Report whether reported RP-LC retention time is lower than 800 s (strictly) for OCCNCc1ccc(-c2ccccc2F)o1
**A:** true (1)

**Q:** Report whether reported RP-LC retention time is lower than 800 s (strictly) for Cc1cc(F)ccc1NS(=O)(=O)c1cc(-c2cc(C(F)(F)F)on2)sc1C
**A:** false (0)

**Q:** Report whether reported RP-LC retention time is lower than 800 s (strictly) for Cc1cccc(NC(=O)Cn2nc(N(C)C)c3ccccc3c2=O)c1C
**A:** false (0)
